# System Name: Cytochrome P450 2D6 (Homo sapiens)
# Method Notes: Cytochrome panel assay with activity outcomes
# Condition Context: recombinant CYP, pro-luciferin dealkylation, luminescence, p450-cyp2d6; series mostly up to 57.1 µM
Hit rate of the full screen: of about 16,000 compounds, about 2,600 (16%) were called active. Not shown: some 20% with an inconclusive outcome. The list is a sample of the results.
Assay Endpoint: AC50

Examples with their reported AC50 follow.
CCNc1nc(NCC)nc(ON=C(C)C)n1	inactive
O=c1c(-c2cc(F)cc(F)c2)nc2cnc(N3CCNCC3)nc2n1Cc1cccs1	inactive
COc1ccc(C(=O)N2CCCCC2)cc1S(=O)(=O)Nc1ccccc1	inactive
O=C(c1cc(C(F)(F)F)cc(C(F)(F)F)c1)N1CCC2(CC1)CCN(c1ccccn1)CC2	inactive
O=[N+]([O-])c1ccc2nc(-c3ccc(Cl)cc3)n(OCc3ccccc3)c2c1	inactive
[N-]=[N+]=Nc1ccc(C(=O)CSC[C@@H](NC(=O)CC[C@@H](N)C(=O)O)C(=O)NCC(=O)O)cc1	inactive

Data request: Please look at this compound and report its AC50: CCCCCc1nc2c(C#N)c(-c3ccc(Cl)cc3)ccn2n1
Data returned: inactive

Data request: Give reported AC50 value for COC(=O)c1c(NC(=O)Cn2cc([N+](=O)[O-])cn2)sc2c1CCC2
Data returned: inactive

Data request: Kindly indicate its recorded AC50. Item: O=C(Nc1ccccc1)c1cc(-n2cnnc2)ccc1Cl
Data returned: inactive

Data request: Please report the measured AC50 for COc1cccc(C(=O)n2c(SC)nc3cc4c(cc32)OCCO4)c1
Data returned: inactive

Data request: Input Cc1ccc(COn2c(-c3ccc(Cl)cc3)nc3ccc([N+](=O)[O-])cc32)cc1 , output reported AC50.
Data returned: inactive

Data request: Query AC50 for CCN(Cc1ccccc1)Cc1cccc([N+](=O)[O-])c1
Data returned: 0.794 µM (active)

Data request: Read off the recorded AC50 for Cn1c(=O)c(-c2ccc(Cl)cc2)nc2cnc(OCc3ccccc3)nc21
Data returned: inactive

Data request: Give the reported AC50 for this compound. Cc1cc(C)c(C#N)c(SCc2cc3c(cc2Cl)OCO3)n1
Data returned: 8.91 µM (active)
